Values from ChEMBL document CHEMBL1938382

targetDesc: Collagenase 3 (Homo sapiens)
Some compounds, each annotated with its measured log10 of IC50.
Plainly stated, the numbers are log10 of IC50 given in µM.

# example entries with known answers
CCOC(=O)c1cc2cc(-c3ccncc3)ccc2[nH]1 = 1.91
CCOC(=O)c1cc2cc(-c3cccnc3)ccc2[nH]1 = 1.18
CCOCc1cc2cc(-c3cc(C(=O)NCc4ccc(C(=O)O)cc4)nn3C)ccc2[nH]1 = -0.60

Q: Entry CCOC(=O)c1cc2cc(-c3cncn3C)ccc2[nH]1 : reported log10 of IC50 = ?
A: 0.40

Q: Can you handle Cn1nc(C(=O)NCc2ccc(C(=O)O)cc2)cc1-c1ccc2[nH]c(C(=O)O)cc2c1 next?
A: 1.40

Q: Can you handle CCOC(=O)c1cc2cc(-c3cc(C(=O)NCc4ccc(=O)[nH]c4)nn3C)ccc2[nH]1 next?
A: -0.92
